- ASSAY_DETAILS: chemical genetic growth profiling, strain panel (AID 1159580);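 note: tested at 20 µM; growth read once vehicle control cultures reached saturation at 30 °C; 1 = growth at the plate median or of vehicle wells; lower values mean less growth of the strain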
- PARTICULARS: S. cerevisiae deletion strains, growth OD, locus YNL071W, strain lat1
In all, about 5,500 compounds went through this assay and about 2,000 (36%) were called active. About 18% were inconclusive and are not listed. Cut-off read from the data, not from the text of the source: active = normalized growth mostly below about 0.91 (no sharp cut-off); inconclusive = no clear call, values can overlap the other calls; inactive = mostly above about 0.92. The list shows a part of the results.
Your answer must be one of the following: 1 for active, -1 for inactive

Before answering, review these 2 worked examples.
# COMPOUND, LABEL_VALUE
measured = [
    ("CC(C)=CCc1c(O)cc2oc(C)cc(=O)c2c1O", -1),
    ("COc1ccc2cc1Oc1ccc(cc1)C[C@H]1c3c(cc4c(c3Oc3cc5c(cc3OC)CCN(C)[C@@H]5C2)OCO4)CCN1C", -1),
]

Task item: Please let me know the test result on file for COC(=O)C1=COC(OC2OC(CO)C(O)C(O)C2O)C2C(C)CC(=O)C12O (stereo not given) .
Reply: -1

Task item: Please let me know the test result on file for COc1cc(O)c2c(=O)cc(C)oc2c1CC=C(C)C .
Reply: 1

Task item: Please let me know the test result on file for Cc1cc(=O)c2c(O)cc(O)c(C)c2o1 .
Reply: -1
